Biological target: T1, PUF4 RNA-binding domain (Saccharomyces cerevisiae, UniProt P25339 537-888)
T1 sequence: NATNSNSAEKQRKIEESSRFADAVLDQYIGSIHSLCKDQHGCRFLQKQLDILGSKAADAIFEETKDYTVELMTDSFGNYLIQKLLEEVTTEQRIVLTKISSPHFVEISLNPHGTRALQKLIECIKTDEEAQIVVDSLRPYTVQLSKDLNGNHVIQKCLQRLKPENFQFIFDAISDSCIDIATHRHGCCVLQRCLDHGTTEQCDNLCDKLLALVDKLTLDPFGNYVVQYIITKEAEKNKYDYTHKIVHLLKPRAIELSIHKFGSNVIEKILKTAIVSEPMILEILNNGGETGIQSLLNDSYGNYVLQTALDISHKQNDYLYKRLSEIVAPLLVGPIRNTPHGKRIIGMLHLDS
Test: Mg; RNA-MaP; 20 mM Na-HEPES pH 7.4, 30 mM KOAc, 0.75 mM MgCl2, 0.1% Tween-20, 5% glycerol, 0.1 mg/mL BSA, 2 mM DTT; 25 C; 0.0125-409.6 nM protein
Conditions: tags: N-His6-TEV cleaved; C-SNAP kept, Cy3B-labelled; label: tethered on chip by stalled RNA polymerase
Measured attribute: log10 Kd (log10 of the value in nM)
Field: value | Transform: log10 | Quantity: Kd | Unit: nM

# get_value(readout='log10 Kd', item= Ic_S2_P3E.1_K3.1_C3.1_H3.1_A3.1_F3.1_[T7C]_[A8G]_T3.1 (ssRNA) RNA: UUUGAUUAAUAUGAUAUCGUUCUUUCUUGUAUACGUUCUUUCUCGAUAUCAUAUUAAUCUUU )
1.55

# get_value(readout='log10 Kd', item= Id_ii_S4_P4E.2_K4.1_C4.2_[C-2A]_H4.1_A4.1_F4.1_T4.2_[G10A]_[T11A] (ssRNA) RNA: UUUGACAACUGAUCGUUCUUUCUAUUGUAUAUUAAAUUCUUUCUCGAUCAGUUGUCUUU )
0.13

# get_value(readout='log10 Kd', item= Ib_S2_P3E.1_K3.1_C3.1_H3.1_A3.1_[A6G]_F3.1_[A8C]_T3.1 (ssRNA) RNA: UUUGAUUAAUAUGAUAUCGUUCUUUCUUGUAUGUCUUCUUUCUCGAUAUCAUAUUAAUCUUU )
1.95

# get_value(readout='log10 Kd', item= UCUCUUUCUUAUAUAUUAGCUCUCUU (ssRNA) [Id_iii_S1_P4E.6_K4.2_C4.3_H4.2_A4.1_F4.1_T4.2_[T11C]] )
0.93

# get_value(readout='log10 Kd', item= UCUCUUUGUACGCAUCUCUU (ssRNA) [Ic_S1_P3E.1_K3.1_C3.1_H3.1_A3.1_[T5C]_[A6G]_F3.1_[T7C]_T3.1] )
2.94

# get_value(readout='log10 Kd', item= Ic_S2_P3E.1_K3.1_C3.1_H3.1_A3.1_[T5A]_F3.1_[T7C]_T3.1 (ssRNA) RNA: UUUGAUUAAUAUGAUAUCGUUCUUUCUUGUAAACAUUCUUUCUCGAUAUCAUAUUAAUCUUU )
2.51
